- PROTOCOL_DETAILS: Metabolic stability in human liver microsomes assessed as intrinsic clearance
- Type: ADME
VALUE_KIND: CLint (µL/min/mg)

| COMPOUND | CLint / µL/min/mg |
| --- | --- |
| C[C@@H]1C[C@@H](n2cc(Nc3nc(NC4(C)CC4)c4c(=O)n(C)ccc4n3)cn2)CCN1C (racemic) | 88 |
| CN(C)C(=O)CN1CCC(n2cc(Nc3nc(NC4(C)CC4)c4c(=O)n(C)ccc4n3)cn2)CC1 | 57 |
| CN1CC2(CC(n3cc(Nc4nc(NC5(C)CC5)c5c(=O)n(CC(F)F)ccc5n4)cn3)C2)C1 | 9.6 |

P. COC(=O)N1CCN([C@H]2CC[C@H](Nc3nc(Nc4cnn(C)c4)nc4ccn(C)c(=O)c34)CC2)CC1
Q. CN1C[C@H]2C[C@@H]1C[C@@H]2n1cc(Nc2nc(NC3(C)CC3)c3c(=O)n(C)ccc3n2)cn1
R. C[C@H](F)Cn1ccc2nc(Nc3cnn(C4CCN(C)CC4)c3)nc(NC3(C)CC3)c2c1=O
S. Cn1cc(Nc2nc(NC3(C)CC3)c3nc(CC#N)ccc3n2)cn1
Task item: Order each entry by recorded CLint, climbing from the minimum. Sort the labels as requested; that list is your answer.
Reply: Q, P, R, S
(Q: 14 µL/min/mg, P: 22 µL/min/mg, R: 47 µL/min/mg, S: 82 µL/min/mg)

I. CN1CCC(n2cc(Nc3nc(NC4(C)CC4)c4c(=O)n(C5CC5)ccc4n3)cn2)CC1
II. C[C@H](F)Cn1ccc2nc(Nc3cnn([C@H]4C[C@H]5C[C@@H]4CN5C)c3)nc(NC3(C)CC3)c2c1=O
Task item: Could you tell me which of I and II has the lower CLint reading? Reply briefly: the label of your chosen item.
Reply: II

A. CN1CCC(n2cc(Nc3nc(NC4(C)CC4)c4c(=O)n(C(F)F)ccc4n3)cn2)CC1
B. CN1CCC(n2cc(Nc3nc(NC4(C)CC4)c4c(=O)n(-c5cn(C)nn5)ccc4n3)cn2)CC1
Task item: Could you tell me which of A and B has the lower CLint reading? Reply briefly: the label of your chosen item.
Reply: A
(A: 31 µL/min/mg, B: 49 µL/min/mg)

A. CN1C[C@@H]2C[C@H]1C[C@@H]2n1cc(Nc2nc(NC3(C)CC3)c3c(=O)n(C)ccc3n2)cn1
B. C[C@@H](F)Cn1ccc2nc(Nc3cnn(C4CCN(C)CC4)c3)nc(NC3(C)CC3)c2c1=O
Task item: Could you tell me which of A and B has the lower CLint reading? Reply briefly: the label of your chosen item.
Reply: A
(A: 17 µL/min/mg, B: 41 µL/min/mg)

---

- TARGET_ENTITY: Interleukin-1 receptor-associated kinase 4 (Homo sapiens, UniProt Q9NWZ3)
- Sequence (Q9NWZ3 whole entry): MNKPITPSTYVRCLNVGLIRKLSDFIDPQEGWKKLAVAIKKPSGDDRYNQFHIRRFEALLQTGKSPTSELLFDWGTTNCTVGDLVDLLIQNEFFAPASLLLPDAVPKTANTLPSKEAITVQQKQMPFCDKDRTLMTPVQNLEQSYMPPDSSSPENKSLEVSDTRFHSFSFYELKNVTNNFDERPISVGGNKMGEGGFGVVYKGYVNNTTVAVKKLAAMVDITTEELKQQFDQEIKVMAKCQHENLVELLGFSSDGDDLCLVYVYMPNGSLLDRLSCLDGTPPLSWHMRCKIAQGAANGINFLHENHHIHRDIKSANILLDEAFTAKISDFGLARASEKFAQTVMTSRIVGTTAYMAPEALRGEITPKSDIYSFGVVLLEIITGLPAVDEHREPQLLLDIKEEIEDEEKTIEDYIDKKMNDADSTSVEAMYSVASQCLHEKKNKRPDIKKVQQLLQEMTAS
- PROTOCOL_DETAILS: Inhibition of human recombinant IRAK4 assessed as unphosphorylated KKARFSRFAGSSPSQSSMVAR peptide substrate measured after 2 hrs by LC-MS/MS analysis
VALUE_KIND: IC50 (nM)

| COMPOUND | UNIT_ABBREV | IC50 |
| --- | --- | --- |
| CN1CC(n2cc(Nc3nc(NC4(C)CC4)c4c(=O)n(C)ccc4n3)cn2)CCC1=O (stereo not drawn) | nM | 2 |
| CN1CCC(n2cc(Nc3nc(NC4(C)CC4)c4c(=O)n(-c5nnc[nH]5)ccc4n3)cn2)CC1 | nM | 11 |
| COC(=O)N1CCN([C@H]2CC[C@H](Nc3nc(Nc4cnn(C)c4)nc4ccn(C)c(=O)c34)CC2)CC1 | nM | 5 |
| C[C@H](F)Cn1ccc2nc(Nc3cnn(C4CC5(C4)CN(C)C5)c3)nc(NC3(C)CC3)c2c1=O | nM | 2 |

a. CC(=O)N1CCC(n2cc(Nc3nc(NC4(C)CC4)c4c(=O)n(C)ccc4n3)cn2)CC1
b. CN1C[C@@H]2C[C@H]1C[C@@H]2n1cc(Nc2nc(NC3(C)CC3)c3c(=O)n(C)ccc3n2)cn1
c. COC(=O)N1CCN([C@H]2CC[C@H](Nc3nc(Nc4cnn(C)c4)nc4ccc(C)nc34)CC2)CC1
d. CN1CCC(n2cc(Nc3nc(NC4(C)CC4)c4c(=O)n(-c5cnn[nH]5)ccc4n3)cn2)CC1
Task item: Order each entry by recorded IC50, climbing from the minimum. Sort the labels as requested; that list is your answer.
Reply: d, a, b, c
